Origin of values: PubChem BioAssay (NCI)

system: HCT-15 colon; assay: NCI-60 one-dose screen, 48 h (100 = growth as untreated, 0 = no growth, -100 = all killed); conditions: 10 µM unless noted
This is part of a sample that, as a whole, favours compounds with a hit. Of some 83,000 tested, about 20% had one in any assay.
Give label 1 when the value for growth is at least 90%. Give label 0 when it is less.

{"molecule": "CC(C)c1cc(C(=O)O)c(O)c(C(C)C)c1.CC(C)c1cc(C(=O)O)c(O)c(C(C)C)c1.[Mn]", "qualitative-label": "label 1"}
{"molecule": "O=c1c(CNc2ccc(S(=O)(=O)Nc3ncccn3)cc2)coc2ccccc12", "qualitative-label": "label 0"}
{"molecule": "N#CC1=C(N)Oc2c(c(N)nn2-c2ccccc2)C1c1ccc(Cl)cc1 (centres undefined)", "qualitative-label": "label 1"}
{"molecule": "CC1(c2ccccc2)OC1C(=O)O (centres undefined)", "qualitative-label": "label 1"}
{"molecule": "Cn1cc(-c2csc(-c3c[nH]c4ccc(F)cc34)n2)c2cccnc21", "qualitative-label": "label 0"}
{"molecule": "COc1cc(-c2cc(-c3nc4cc(Cl)c(Cl)cc4[nH]3)[nH]n2)cc(OC)c1OC", "qualitative-label": "label 0"}
{"molecule": "CC(C)(C)CC(C)(C)c1ccc(OCCOCC[N+](C)(C)CC(=O)[O-])cc1", "qualitative-label": "label 1"}
{"molecule": "C=C(C)[C@@H]1CC[C@]2(C(=O)N3CCN(C)CC3)CC[C@]3(C)[C@H](CC[C@@H]4[C@@]5(C)C/C(=C/c6ccc(C(F)(F)F)cc6)C(=O)C(C)(C)[C@@H]5CC[C@]43C)[C@@H]12", "qualitative-label": "label 0"}

###

system: HCT-15 colon; assay: NCI-60 one-dose screen, 48 h (100 = growth as untreated, 0 = no growth, -100 = all killed); settings: 10 µM unless noted
Compounds without any hit were thinned out: in the full panel of roughly 83,000, 20% have a hit.
// reported growth for each item listed

{"molecule": "Cn1c2ccccc2c2c3c(c4c5cccnc5[nH]c4c21)C(=O)N(O)C3=O", "growth / %": 67.4}
{"molecule": "Cc1cc(Cl)nc(N(CCCNc2ccnc3cc(Cl)ccc23)Cc2ccco2)n1", "growth / %": 18.3}
{"molecule": "C/C(=N/NC(N)=S)C(=O)O", "growth / %": 82.9}
{"molecule": "C/C(=N\\Nc1ccc2ccccc2n1)c1ccccn1", "growth / %": 22.6}
{"molecule": "Cn1cc(-c2nc(-c3c[nH]c4ncccc34)cs2)c2cc(Br)ccc21", "growth / %": 64.2}
{"molecule": "O=C(N/N=C/c1ccccc1SSc1ccccc1/C=N/NC(=O)c1ccccc1)c1ccccc1", "growth / %": 21.6}
{"molecule": "O=C(c1ccccc1)C(CN1CCOCC1)c1ccccc1 (stereo unspecified)", "growth / %": 1.74}
{"molecule": "COc1ccc(C2NC(=O)Nc3ccccc32)c(OC)c1 (stereo unspecified)", "growth / %": 100}
{"molecule": "Cn1cc(-c2csc(-c3cn(CCCN4CCCCC4)c4ccc(Br)cc34)n2)c2cccnc21", "growth / %": -78.2}
{"molecule": "COc1ccc2c(c1)c(-c1nc(-c3cn(C)c4ncccc34)cs1)cn2CCN", "growth / %": 58.5}
{"molecule": "CCOc1ccc(NC(=O)c2ccccc2-c2ccccc2C(=O)O)cc1", "growth / %": 106}
